# Measurement target: Glutamate NMDA receptor (Rattus norvegicus) (UniProt P35439+Q00959+Q00960+Q00961+Q62645+Q8VHN2+Q9R1M7)
# Method: Ability to displace [3H]CPP from N-methyl-D-aspartate glutamate receptor in rat brain membrane was evaluated at 10e-4 M
# Assay type: cell membranes
Property: inhibition (%)

{"Molecule": "NC(Cc1ccc(CP(=O)(O)O)cc1)C(=O)O (centres undefined)", "inhibition (%)": 1}

[a] NC(Cc1ccc(P(=O)(O)O)cc1)C(=O)O (centres undefined)
[b] O=C(O)C1NCCc2c1cccc2P(=O)(O)O (centres undefined)
Of a versus b , which is the one with smaller reported inhibition? To answer, give the label that identifies your chosen option. b
